Cited source: PubChem BioAssay (NCI)

Listing of entries alongside the reported TGI.
# System: RPMI-8226 leukemia
# measurement_description: NCI tumour cell line growth inhibition, 48 h

[
  {
    "molecule": "CCOC(=O)N1CCN(Cc2cc(=O)n3ccc(C)cc3n2)CC1",
    "TGI": "> 100 µM"
  },
  {
    "molecule": "COC(=O)CC(c1ccccc1)C1(c2ccccc2)SCCS1 (stereo unspecified)",
    "TGI": "> 290 µM"
  },
  {
    "molecule": "Cc1cc(I)cc(CN(CCCN(C)C)C(C)C)c1O",
    "TGI": "26.7 µM"
  }
]

stdin: Give reported TGI for `O=C(NCc1ccccc1)c1n[nH][nH]c1=O` (RPMI-8226 leukemia)
stdout: > 100 µM

stdin: Give reported TGI for `COc1ccc(N=NC(=Nc2ccccc2)c2ccc(N(CCC#N)CCC#N)cc2)cc1` (RPMI-8226 leukemia)
stdout: > 100 µM

stdin: Give reported TGI for `N=c1nnc2ccc(Cl)cc2n1O` (RPMI-8226 leukemia)
stdout: > 100 µM

---

# Tested on: OVCAR-5 ovarian
# measurement_description: NCI tumour cell line growth inhibition, 48 h; in the data active = GI50 below about 0.43 µM; inactive = the rest
Where a SMILES comes first, the peptide text is derived from it. [ ]: non-standard residue; d: D form. The star is where a group is joined. ξ: configuration not given here. X3 = COc1ccc(C(N*)c2ccc(OC)cc2)cc1; NMeF = CN[C@@H](Cc1ccccc1)C(=O)O; NMeD = CN[C@@H](CC(=O)O)C(=O)O; NMeV = CN[C@H](C(=O)O)C(C)C; ξNMeV = CNC(C(=O)O)C(C)C; Boc = CC(C)(C)OC(=O)*; ξNMeA = CNC(C)C(=O)O; ξV = CC(C)C(N)C(=O)O
Form entry, call: pick from active, inactive

[
  {
    "compound": "C=C1C(=O)O[C@H]2[C@H]1CC/C(COC(=O)NCc1ccc(Cn3c(=O)sn(-c4ccc(OC)cc4)c3=O)cc1)=C\\CC[C@@]1(C)O[C@@H]21",
    "category": "inactive"
  }
]

stdin: I would be grateful if you could indicate the recorded call for `CN1CC[C@@H](NC(=O)Nc2ccc(C#N)cc2)C[C@@H]1c1nc2ccccc2[nH]1` .
stdout: inactive

stdin: I would be grateful if you could indicate the recorded call for `Cc1cc(I)cc(CN(CCCN(C)C)C(C)C)c1O` .
stdout: inactive

stdin: I would be grateful if you could indicate the recorded call for COc1ccc(C(NC(=O)C[C@@H](C(=O)N(C)C(C)C(=O)O)N(C)C(=O)[C@@H]2CCCN2C(=O)[C@H](C(C)C)N(C)C(=O)C(C(C)C)N(C)C(=O)[C@H](Cc2ccccc2)N(C)C(=O)C(NC(=O)OC(C)(C)C)C(C)C)c2ccc(OC)cc2)cc1 (some centres undefined) (Boc-[ξV][NMeF][ξNMeV][NMeV]P[NMeD](X3)[ξNMeA]-OH) .
stdout: inactive

---

# Test system: NCI-H522 lung
# measurement_description: NCI tumour cell line growth inhibition, 48 h; in the data active means GI50 below about 0.43 µM; inactive means the rest
Form entry, call: pick from active, inactive

# count of solved cases: 3
[
  {
    "molecule": "COc1ccc(CN2C(=O)/C(=C\\c3cc(OC)c(OC)c(OC)c3)c3ccccc32)cc1",
    "category": "inactive"
  },
  {
    "molecule": "COc1ccc2[nH]cc(/C=C(/C)c3ccncc3)c2c1",
    "category": "inactive"
  },
  {
    "molecule": "CCC(=C/[C@H](C)C/C=C/C(C)=C/[C@@H](C)C(=O)[C@@H](C)[C@H](O)[C@@H](C)CC)/C=C/[C@H]1OC(=O)C=C[C@@H]1C",
    "category": "active"
  }
]

We next turn to a different molecule, shown below.
stdin: I would be grateful if you could indicate the recorded call for Nc1n[nH]c2cc(F)c([C@@H]3Nc4ccc5[nH]ncc5c4[C@H]4C5CCC(C5)[C@@H]34)cc12 (some centres undefined) .
stdout: active
